# system: T1, His-tagged cynomolgus monkey CD38 (ACRO Biosystems cat #CD8-05223) (cynomolgus monkey, UniProt Q5VAN0 43-301)
# T1 construct: bought recombinant protein with His tag
# assayText: SPR, captured scFv-Fc, His-CD38 analyte;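 note: SPR on a Carterra LSA, scFv-Fc captured by anti-human Fc on HC30M chip, His-tagged CD38 (human, mouse, cynomolgus) flowed as analyte in eight 1:2 steps from 400 nM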
pKd: −log10 of the molar value.
measuredParameter: pKd

binder	observedMeasurement
40769p1.1.B12 (scFv, V domains shown, tested as scFv-Fc supernatant) VH: EVQLLESGGGLIQPGGSLRLSCTASGFDFSSYGMHWVRQAPGKGLEWVGIISDSGGTTYYADSVKGRFTISRDNSKNTMYLQMNSLRAEDTALYYCASYIMDVWGQGITVTVSS VL: QSVLTQPPSASGTPGQRVTISCSGSSSNVGGNSVYWYQQLPGTAPKLLFYGNHRRPSGVPDRFSGSKSGTSASLAISGLQSEDEADYYCAVWDDSLNAWVFGGGTKLTVL	6.87
40769p1.1.H1 (scFv, V domains shown, tested as scFv-Fc supernatant) VH: EVQLLESGGGLVQPGGSLRLSCAASGFTFSDYWMNWVRQAPGKGLEWVSTISSGGSMIYHADSVKGRFTISRDNSKNTLYLQMNSLRPEDTAVYYCAKDNWNDYYGMDVWGQGTTVTVSS VL: QSVLTQPPSASGTPGQRVNISCSGSSSNIRYNYVYWYQQVPGTAPKLLIYKDDQRPSGVPDRFSGSKSGTSASLAISELQSEDEADYYCATWDGSLNARVFGGGTKLTVL	7.23
40769p1.1.A2 (scFv, V domains shown, tested as scFv-Fc supernatant) VH: EVQLLESGGGLVQPGGSLRLSCAASGFLFDDYGMSWVRQAPGKGLEWVSAISYKGGSTYYADSVKGRFTISRDNSKNTLYLQMSSLRAEDTAVYYCAKDHKWNYYGMDVWGQGTTVTVSS VL: QSVLTQPPSASGTPGQRVTISCSGSTSNIGNDNYVSWYQQLPGTAPRLLIYKDDQRPSGVPDRFSGSKSGTSASLAISGLQSEDEADYYCGTWDDRLNAWVFGGGTKLTVL	9.46
40596p1.F6 (scFv, V domains shown, tested as scFv-Fc supernatant) VH: EVQLLESGGGLVQPGGSLRLSCAASGFDFSKNAMSWVRQAPGKGLEYVAGSGWSGSFIFYADSVKGRFTVSRDNSENTLYLQMSSLRAEDTAVYYCAKNPGFGEMDVWGQGTTVTVSS VL: EIVLTQSPGSLFLSPGERATLTCRASQTIGSNLAWYQQKFGQAPRLLIYGASTRAADIPDRFSGSGSGTEFTLTISSLQSEDFAVYYCQQYNSWPPLTFGGGTKVEIK	7.01
40769p1.1.G5 (scFv, V domains shown, tested as scFv-Fc supernatant) VH: EVQLLESGGGFVQPGGSLRLSCAASGFNFNNAWMNWVRQAPGKGLEWVGIINGDGTNTYYADSVKGRFTISRDNSKNTLYLQMSSLRAEDTAIYYCARDNKLNDYYYAMDVWGQGTTVTV VL: QSVLTQPSSASGTPGQRVTISCSGGSSNIHANYVYWYQQLPGTAPKLLIYRNSQRPSGVPDRFSGSKSGTSASLAISGLQSEDEADYYCGTWDNILNVWVFGGGTKLTVL	7.94
40596p1.E4 (scFv, V domains shown, tested as scFv-Fc supernatant) VH: EVQLLESGGGLVQPGGSLRLSCAASGFDFSGSAMSWVRQAPGKGLEYVAGLGWSGSFIYYADSVKGRSTISRDNSKNTLYLQLNSLRAEDTAVYYCARNPGFGEMDVWGQGTTVTVSS VL: EIVLTQSPGSLSLSPGERATLSCRASQTVGSNLAWYQQKPGQAPRLLIYGASTRATDIPDRFSGSGSGTEFTLTISSLQSEDFAVYYCQQYNSWPPLTFGGGTKVEIK	7.75
40769p1.1.G12 (scFv, V domains shown, tested as scFv-Fc supernatant) VH: EVQLLESGGGLVQPGGSLRLSCAASGFTFDDYVMSWVRQAPGKGLEWVSEISESDGSNKYYADSVKGRFIISRDNSKNTLYLQMNSLRAEDTAVYYCARLEPEKYYGMDVWGQGTTVTVSS VL: QSVLTQPPSASGTPGQRVTISCSGSNSNIGNNLVSWYQQLPGTAPKLLIYRHDHRPSGVPDRFSGSKSGTSASLAISGLQSEDEADYYCATWDDSLNGRAFGGGTKLTVL	7.94
40596p1.D2 (scFv, V domains shown, tested as scFv-Fc supernatant) VH: EVQLLESGGGLVQPGGSLRLSCAASGFDFSKNAMSWVRQAPGKGLEYVAGSGWSGSFIFYADSVKGRSTVSRDNSENTLYLQMSSLRAEDTAVYYCAKNPGFGEMDVWGQGTTVTVSS VL: ELVLTQSPGSLFLSPGERATLTCRASQTIGSNLAWYQQKFGQAPRLLIYGASTRAADIPDRFSGSGSGTEFTLTISSLQSEDFAVYYCQQYNSWPPLTFGGGTKVEIK	6.81
